EXPERIMENTAL_DETAILS: Measurement of viscosity (cone-and-plate viscosimeter)
Format: physicochemical
RECORDED_CONDITIONS: constant shear rate 300 s^-1, 25° C.
# cutoff 5 mPa*s applies to Viscosity at 25° C.; >= gives Met, < gives Not met

Example entries and their recorded answers appear below.
MOLECULE: CCC#COCCOC(COCC)OC#CCC (centres unmarked)
CAT: Met

MOLECULE: C=C(C)C(=O)OCCCCOC(=O)C(=C)C [1,4-butanediol dimethacrylate, reference compound]
CAT: Not met

MOLECULE: CCC#COCCCCOC#CCC
CAT: Met

Is reported Viscosity at 25° C. greater than or equal to 5 mPa*s here: C=CC(=O)OCCCCOC(=O)C=C [1,4-butanediol diacrylate, reference compound]
Not met

Then C#CCOCCCCOCC#C ?
Not met
